Where do these numbers come from? They come from paper PMC8000185.

biological target: urokinase from human kidney cells (human uPA) (Homo sapiens, UniProt P00749); construct: low molecular weight active human uPA; purchased Sigma-Aldrich U4010; host or cells: human kidney cells; experiment: uPA inhibition assay (fluorescence-based, purified enzyme); assay type: biochemical; conditions: purified enzyme, Z-Gly-Gly-Arg-AMC substrate; number in parentheses after value; read-out: uPA IC50
PROPERTY MEASURED: IC50
Entry format: amount then unit.

Here is how some compounds turned out for IC50.
>  <CPD SMILES>
CCN(c1nc(N)c(C(=O)NC(=N)N)nc1-c1cc2ccccc2o1)C(C)C

>  <TESTED ON>
urokinase from human kidney cells (human uPA) (Homo sapiens, UniProt P00749)

>  <OBSERVED MEASUREMENT>
1600 nM

$$$$
>  <CPD SMILES>
N=C(N)NC(=O)c1nc(Cl)c(N2CCOCC2)nc1N

>  <TESTED ON>
urokinase from human kidney cells (human uPA) (Homo sapiens, UniProt P00749)

>  <OBSERVED MEASUREMENT>
10900 nM

$$$$

Documented IC50 of N=C(N)NC(=O)c1nc(-c2cc3cc(Br)ccc3o2)c(N2CCCCCC2)nc1N : 2560 nM

###

inhibition at 1 µM overview
molecular target: NHE1 (Homo sapiens); construct: endogenous in cells; host or cells: MDA-MB-231; assay: Plate-based NHE1 inhibition assay (BCECF pHi recovery, 96-well plate reader); format: cell-based; settings: 1 μM, MDA-MB-231 cells, plate reader
Return type: number; implicit unit %.

>  <CPD SMILES>
N=C(N)NC(=O)c1nc(-c2cncnc2)c(N2CCOCC2)nc1N

>  <TESTED ON>
NHE1 (Homo sapiens)

>  <UOM>
%

>  <inhibition at 1 µM>
77

$$$$
>  <CPD SMILES>
N=C(N)NC(=O)c1nc(-c2cnc(NCCO)nc2)c(N2CCCCCC2)nc1N

>  <TESTED ON>
NHE1 (Homo sapiens)

>  <UOM>
%

>  <inhibition at 1 µM>
0

$$$$
>  <CPD SMILES>
N=C(N)NC(=O)c1nc(-c2cc3cc(F)cc(F)c3o2)c(N2CCCCCC2)nc1N

>  <TESTED ON>
NHE1 (Homo sapiens)

>  <UOM>
%

>  <inhibition at 1 µM>
0

$$$$

Now for a further molecule.
Documented inhibition at 1 µM of N=C(N)NC(=O)c1nc(-c2cc3cc(Cl)ccc3o2)c(N2CCCCCC2)nc1N : 0

###

Assay: Cell viability (cytotoxicity) assay
Type: cell-based
Settings: human, MDA-MB-231 cells, 48 h treatment
Method: On the day of treatment, respective compounds were serially diluted using a semi-logarithmic dilution series from 20 mM stocks in neat DMSO into DMEM-high glucose media (10% v/v FBS) in a separate 96-well plate and under sterile conditions. Thereafter, 10 μL of the diluted compounds at their respective concentrations (n = 4) were added to the cells. […] Blank-corrected data were analysed and graphed using GraphPad PRISM v8.0 software (GraphPad Software, San Diego, CA USA).
PROPERTY MEASURED: IC50 at 48 h (µM)
Return type: number; implicit unit µM.

>  <CPD SMILES>
N=C(N)NC(=O)c1nc(-c2cc3ccccc3o2)c(NC2CCCC2)nc1N

>  <IC50 at 48 h (µM)>
6.2

$$$$
>  <CPD SMILES>
Cc1ccc2oc(-c3nc(C(=O)NC(=N)N)c(N)nc3N3CCCCCC3)cc2c1

>  <IC50 at 48 h (µM)>
8.8

$$$$
>  <CPD SMILES>
N=C(N)NC(=O)c1nc(-c2cc3ccccc3o2)c(N2CCOCC2)nc1N

>  <IC50 at 48 h (µM)>
36.7

$$$$
>  <CPD SMILES>
N=C(N)NC(=O)c1nc(-c2cc3cc(Cl)ccc3o2)c(N2CCCCCC2)nc1N

>  <IC50 at 48 h (µM)>
26.4

$$$$

Documented IC50 at 48 h of N=C(N)NC(=O)c1nc(-c2cc3cnccc3o2)c(N2CCCCCC2)nc1N : 69.4

Documented IC50 at 48 h of N=C(N)NC(=O)c1nc(-c2cc3ccccc3o2)c(N2CCCOCC2)nc1N : 54

###

target: NHE1 (Homo sapiens, UniProt P19634); construct: endogenous in cells; host or cells: MDA-MB-231; experiment: Plate-based NHE1 inhibition assay (BCECF pHi recovery, 96-well plate reader); assay type: cell-based; conditions: 1 μM, MDA-MB-231 cells, plate reader
Sequence (P19634 whole entry): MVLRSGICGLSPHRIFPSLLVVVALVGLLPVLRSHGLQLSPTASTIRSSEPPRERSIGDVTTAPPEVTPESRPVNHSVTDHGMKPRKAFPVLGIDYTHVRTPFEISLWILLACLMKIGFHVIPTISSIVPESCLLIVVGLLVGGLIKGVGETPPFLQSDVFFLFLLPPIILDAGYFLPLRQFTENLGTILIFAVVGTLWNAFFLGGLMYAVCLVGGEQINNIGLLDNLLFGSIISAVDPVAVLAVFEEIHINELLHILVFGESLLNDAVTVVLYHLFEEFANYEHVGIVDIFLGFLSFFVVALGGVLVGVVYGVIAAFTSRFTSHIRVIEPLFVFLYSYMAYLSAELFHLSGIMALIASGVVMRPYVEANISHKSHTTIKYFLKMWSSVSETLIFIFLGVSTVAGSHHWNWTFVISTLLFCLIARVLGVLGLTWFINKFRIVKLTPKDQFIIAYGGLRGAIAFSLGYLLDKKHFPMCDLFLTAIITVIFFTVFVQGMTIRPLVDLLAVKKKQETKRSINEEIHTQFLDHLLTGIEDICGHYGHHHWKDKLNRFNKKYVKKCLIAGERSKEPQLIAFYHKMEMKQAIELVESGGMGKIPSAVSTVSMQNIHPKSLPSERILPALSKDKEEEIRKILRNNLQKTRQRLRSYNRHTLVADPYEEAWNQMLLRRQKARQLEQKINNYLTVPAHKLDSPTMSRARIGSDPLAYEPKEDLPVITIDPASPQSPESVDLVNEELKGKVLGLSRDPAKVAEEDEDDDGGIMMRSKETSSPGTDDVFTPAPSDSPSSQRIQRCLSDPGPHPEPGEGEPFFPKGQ
inhibition at 1 µM overview
Return type: number; implicit unit %.

>  <COMPOUND>
N=C(N)NC(=O)c1nc(-c2cncnc2)c(N2CCCOCC2)nc1N [compound 42]

>  <PROPERTY MEASURED>
inhibition at 1 µM

>  <OBSERVED MEASUREMENT>
39

$$$$
>  <COMPOUND>
N=C(N)NC(=O)c1nc(-c2cc3ccccc3o2)c(N2CCOCC2)nc1N [compound 36]

>  <PROPERTY MEASURED>
inhibition at 1 µM

>  <OBSERVED MEASUREMENT>
29

$$$$

Documented inhibition at 1 µM of COc1ccc2oc(-c3nc(C(=O)NC(=N)N)c(N)nc3N)cc2c1 [compound 14] : 4

Documented inhibition at 1 µM of N=C(N)NC(=O)c1nc(-c2cc3cnccc3o2)c(N2CCCCCC2)nc1N [compound 19] : 23

Documented inhibition at 1 µM of N=C(N)NC(=O)c1nc(-c2cc3ncccc3o2)c(N2CCCC2)nc1N [compound 38] : 0

Documented inhibition at 1 µM of COc1ncc(-c2nc(C(=O)NC(=N)N)c(N)nc2N2CCCCCC2)cn1 [compound 26] : 0

Documented inhibition at 1 µM of N=C(N)NC(=O)c1nc(-c2cc3ccccc3o2)c(NC2CCCCCC2)nc1N [compound 35] : 0

Documented inhibition at 1 µM of N=C(N)NC(=O)c1nc(Cl)c(N)nc1N [AML, Amiloride, reference compound] : 7

Documented inhibition at 1 µM of N=C(N)NC(=O)c1nc(-c2cc3cc(Br)ccc3o2)c(N)nc1N [compound 12] : 0

Documented inhibition at 1 µM of N=C(N)NC(=O)c1nc(-c2cncnc2)c(N2CCCCCC2)nc1N [compound 24] : 80

Documented inhibition at 1 µM of Cc1ccc2oc(-c3nc(C(=O)NC(=N)N)c(N)nc3N3CCCCCC3)cc2c1 [compound 7] : 5

Documented inhibition at 1 µM of N=C(N)NC(=O)c1nc(-c2ccc(C(F)(F)F)cc2)c(N2CCCCCC2)nc1N [compound 23] : 77

Documented inhibition at 1 µM of N=C(N)NC(=O)c1nc(-c2cc3ccccc3o2)c(N2CCCC2)nc1N [compound 31] : 18

Documented inhibition at 1 µM of N=C(N)NC(=O)c1nc(-c2cc3cc(F)ccc3o2)c(N)nc1N [compound 8] : 0

Documented inhibition at 1 µM of N=C(N)NC(=O)c1nc(-c2cc3ncccc3o2)c(N2CCCCCC2)nc1N [compound 21] : 2

Documented inhibition at 1 µM of N=C(N)NC(=O)c1nc(I)c(N)nc1N [compound 3] : 36

Documented inhibition at 1 µM of N=C(N)NC(=O)c1nc(-c2cnc(N)nc2)c(N2CCCCCC2)nc1N [compound 27] : 0

Documented inhibition at 1 µM of COc1ncc(-c2nc(C(=O)NC(=N)N)c(N)nc2N2CCCOCC2)cn1 [compound 43] : 0

###

target: NHE1 (Homo sapiens); construct: endogenous in cells; host or cells: MDA-MB-231; test: Plate-based NHE1 inhibition assay (BCECF pHi recovery, 96-well plate reader); assay type: cell-based; conditions: MDA-MB-231 cells, plate-reader assay; read-out: NHE1 Plate reader IC50
PROPERTY MEASURED: IC50 (nM)
Return type: number; implicit unit nM.

>  <COMPOUND>
CC(=O)N1CCC(c2ccc(C(=O)NC(=N)N)cc2C(F)(F)F)CC1 [BI-9627, reference compound]

>  <IC50 (nM)>
3

$$$$

Documented IC50 of N=C(N)NC(=O)c1nc(-c2ccc(C(F)(F)F)cc2)c(N2CCCC2)nc1N : 605

###

biological target: urokinase from human kidney cells (human uPA) (Homo sapiens, UniProt P00749); construct: low molecular weight active human uPA; purchased Sigma-Aldrich U4010; host or cells: human kidney cells; assay: uPA inhibition assay (fluorescence-based, purified enzyme); assay type: biochemical; settings: purified enzyme, Z-Gly-Gly-Arg-AMC substrate; number in parentheses after value; read-out: uPA IC50
PROPERTY MEASURED: IC50

Here is how some compounds turned out for IC50.
>  <COMPOUND>
N=C(N)NC(=O)c1nc(-c2cnc(N)nc2)c(N2CCCCCC2)nc1N

>  <PROPERTY MEASURED>
IC50

>  <OBSERVED MEASUREMENT>
34 nM

$$$$
>  <COMPOUND>
N=C(N)NC(=O)c1nc(-c2cc3ccccc3o2)c(N2CCCC2)nc1N

>  <PROPERTY MEASURED>
IC50

>  <OBSERVED MEASUREMENT>
546 nM

$$$$
>  <COMPOUND>
N=C(N)NC(=O)c1nc(-c2cc3cc(F)cc(F)c3o2)c(N)nc1N

>  <PROPERTY MEASURED>
IC50

>  <OBSERVED MEASUREMENT>
609 nM

$$$$
>  <COMPOUND>
Cc1ccc2oc(-c3nc(C(=O)NC(=N)N)c(N)nc3N3CCCCCC3)cc2c1

>  <PROPERTY MEASURED>
IC50

>  <OBSERVED MEASUREMENT>
1180 nM

$$$$

Documented IC50 of N=C(N)NC(=O)c1nc(-c2cc3cc(F)cc(F)c3o2)c(N2CCCCCC2)nc1N : 380 nM

Documented IC50 of N=C(N)NC(=O)c1nc(-c2cc3ncccc3o2)c(N)nc1N : 453 nM

Documented IC50 of N=C(N)NC(=O)c1nc(-c2cc3ccccc3o2)c(N2CCCCCC2)nc1N : 297 nM

Documented IC50 of N=C(N)NC(=O)c1nc(-c2cc3ccccc3o2)c(NC2CCCC2)nc1N : 5860 nM

Documented IC50 of N=C(N)NC(=O)c1nc(-c2cc3cc(F)ccc3o2)c(N2CCCCCC2)nc1N : 187 nM

Documented IC50 of N=C(N)NC(=O)c1nc(Cl)c(N2CCCOCC2)nc1N : 5720 nM

Documented IC50 of N=C(N)NC(=O)c1nc(-c2cnc(NCCO)nc2)c(N2CCCCCC2)nc1N : 67 nM

Documented IC50 of N=C(N)NC(=O)c1nc(-c2cc3ccccc3o2)c(N2CCOCC2)nc1N : 797 nM

Documented IC50 of N=C(N)NC(=O)c1nc(-c2cc3cnccc3o2)c(N2CCCCCC2)nc1N : 164 nM

Documented IC50 of N=C(N)NC(=O)c1nc(Cl)c(N2CCCCCC2)nc1N [HMA, 5-(N,N-hexamethylene)amiloride, reference compound] : 2210 nM

Documented IC50 of N=C(N)NC(=O)c1nc(-c2cncnc2)c(N2CCCOCC2)nc1N : 780 nM

Documented IC50 of N=C(N)NC(=O)c1nc(-c2cncnc2)c(N2CCOCC2)nc1N : 563 nM

Documented IC50 of N=C(N)NC(=O)c1nc(-c2ccc(C(F)(F)F)cc2)c(N)nc1N : 5100 nM

Documented IC50 of COc1ccc2oc(-c3nc(C(=O)NC(=N)N)c(N)nc3N3CCCCCC3)cc2c1 : 1690 nM
